Measured AUC of dose-response viability curve, listed per entry.
System: SN12C
Experiment: AUC of dose-response viability curve, drug alone (arbitrary (AUC of normalised viability)); higher = less growth inhibition
Conditions: treatment: drug alone; 5 days
Give only the figure.

{"Molecule": "CCCS(=O)(=O)Nc1ccc(F)c(C(=O)c2c[nH]c3ncc(-c4ccc(Cl)cc4)cc23)c1F", "Endpoint result": 3.05}
{"Molecule": "C[C@@H](Oc1cc(-n2cnc3ccc(CN4CCN(C)CC4)cc32)sc1C(N)=O)c1ccccc1C(F)(F)F", "Endpoint result": 1.92}

Please examine the following record next.
q: Fill in the recorded AUC of dose-response viability curve for this molecule, with SN12C as test system: CO[C@H]1C[C@@H]2CC[C@@H](C)[C@@](O)(O2)C(=O)C(=O)N2CCCC[C@H]2C(=O)O[C@H]([C@H](C)C[C@@H]2CC[C@@H](OCCO)[C@H](OC)C2)CC(=O)[C@H](C)/C=C(\C)[C@@H](O)[C@@H](OC)C(=O)[C@H](C)C[C@H](C)/C=C/C=C/C=C/1C [Everolimus (RAD001)]
a: 2.56

----------
System: SN12C
Assay: minimum viability across doses, drug + dasatinib, relative to DMSO (fraction); higher = less growth inhibition
Conditions: treatment: drug + dasatinib (fixed dose, not stated); 5 days
Reported endpoint: minimum viability across doses
Give the value as a plain number.

{"Compound": "O=C(Nc1cccc(Nc2ncc(Br)c(NCCc3cnc[nH]3)n2)c1)N1CCCC1 [BX-912] + Cc1nc(Nc2ncc(C(=O)Nc3c(C)cccc3Cl)s2)cc(N2CCN(CCO)CC2)n1", "Endpoint result": 0.0907}
{"Compound": "O=C(NCc1ccccc1)c1csc(Nc2ccncn2)n1 [Thiazovivin] + Cc1nc(Nc2ncc(C(=O)Nc3c(C)cccc3Cl)s2)cc(N2CCN(CCO)CC2)n1", "Endpoint result": 0.694}
{"Compound": "COc1ccc(-c2ccc3c(N4CCOC[C@@H]4C)nc(N4CCOC[C@@H]4C)nc3n2)cc1CO [AZD8055] + Cc1nc(Nc2ncc(C(=O)Nc3c(C)cccc3Cl)s2)cc(N2CCN(CCO)CC2)n1", "Endpoint result": 0.135}
{"Compound": "C[C@H](NC(=O)/C(C#N)=C/c1cccc(Br)n1)c1ccccc1 [WP1066] + Cc1nc(Nc2ncc(C(=O)Nc3c(C)cccc3Cl)s2)cc(N2CCN(CCO)CC2)n1", "Endpoint result": 0.385}

q: Reported minimum viability across doses for Clc1ccc(C2(c3ccc(-c4cn[nH]c4)cc3)CCNCC2)cc1 [AT7867] + Cc1nc(Nc2ncc(C(=O)Nc3c(C)cccc3Cl)s2)cc(N2CCN(CCO)CC2)n1 : what is it?
a: 0.192

----------
System: 786-O
Assay: minimum viability across doses, drug alone, relative to DMSO (fraction); higher = less growth inhibition
Settings: treatment: drug alone; 5 days
The threshold is 0.1. Values of minimum viability across doses beneath it are tagged rule met; values meeting or exceeding it are tagged rule not met.

As a guide, the following entries are already answered.
{"Compound": "O=C1NC(=O)/C(=C/c2ccc3nccc(-c4ccncc4)c3c2)S1", "Test target": "786-O", "Classification": "rule not met"}
{"Compound": "CCOC(=O)C1=C(N)Oc2ccc(Br)cc2[C@H]1[C@H](C#N)C(=O)OCC [HA14-1]", "Test target": "786-O", "Classification": "rule not met"}

q: Below 0.1 on minimum viability across doses? Entry CC(C)(O)CC(=O)NCCn1ccc2ncnc(Nc3ccc(Oc4cccc(C(F)(F)F)c4)c(Cl)c3)c21 [TAK-285]
a: rule not met

q: Problem: For the compound COc1ncc(-c2ccc3nccc(-c4ccnnc4)c3c2)cc1NS(=O)(=O)c1ccc(F)cc1F , is minimum viability across doses under 0.1?
a: rule met

q: Does the reported minimum viability across doses of CO[C@H]1C[C@H]2CC[C@@H](C)[C@@](O)(O2)C(=O)C(=O)N2CCCC[C@H]2C(=O)O[C@H]([C@H](C)C[C@@H]2CC[C@H](OP(C)(C)=O)[C@H](OC)C2)CC(=O)[C@H](C)/C=C(\C)[C@@H](O)[C@@H](OC)C(=O)[C@H](C)C[C@H](C)/C=C/C=C/C=C/1C (stereo in doubt) [Deforolimus (Ridaforolimus)] stay below 0.1?
a: rule not met

q: Confirm or reject: minimum viability across doses of S=C(NCc1ccc2c(c1)OCO2)N1CCN(c2ncnc3c2oc2ccccc23)CC1 [Amuvatinib (MP-470)_R2] lies strictly below 0.1
a: rule met

q: For CC[C@@H]1C(=O)N(C)c2cnc(Nc3ccc(C(=O)N[C@H]4CC[C@H](N5CCN(CC6CC6)CC5)CC4)cc3OC)nc2N1C(C)C [BI6727 (Volasertib)] , is the recorded minimum viability across doses below the cut-off of 0.1?
a: rule met

q: I wonder whether CN1CCN(c2ccc([N+](=O)[O-])c3no[n+]([O-])c23)CC1 has minimum viability across doses below 0.1. Can you tell?
a: rule not met

From: the supplement of paper PMC8149375
